Data origin, for the record: patent US11072581B2

Where a name gives a salt, the structure may show the parent alone.
In this section we review reported melting point values for a set of molecules.

Recorded melting point, per entry:
>>> print(df.to_string())
                                   molecule  measured_value
0  CC(C)C[C@H](N)C(=O)NS(=O)(=O)c1cccc2cc(C(N)=O)ncc12 (as salt: salt) [Compound 5.24]        222.9 °C
1  CC(C)C[C@H](N)C(=O)NS(=O)(=O)c1ccc(F)cc1 [Compound 5.8]   235 to 236 °C
2  COc1ccc2cc(S(=O)(=O)NC(=O)[C@@H](N)CC(C)C)ccc2c1 [Compound 5.17]   230 to 232 °C
3  CC(C)C[C@H](N)C(=O)NS(=O)(=O)c1c(C(C)C)cc(C(C)C)cc1C(C)C [Compound 5.12]          217 °C

Ask | Could you tell me which melting point is on file for CC(C)C[C@H](N)C(=O)NS(=O)(=O)c1cccc(-c2cccc(N)n2)c1 [Compound 5.44] ?
Reply | 148 °C (dec.)

Ask | Could you tell me which melting point is on file for COc1cc(-c2cccc(S(=O)(=O)NC(=O)[C@@H](N)CC(C)C)c2)nc(N)n1 [Compound 5.36] ?
Reply | 87 to 88 °C (dec.)
